# credit: PubChem BioAssay (NCI)

Test system: MALME-3M melanoma
assay_info: NCI-60 one-dose screen, 48 h (100 = growth as untreated, 0 = no growth, -100 = all killed)
condition_label: 10 µM
The panel holds about 83,000 compounds, 20% with a hit somewhere; the sample as a whole holds those more often. Activity calls are given as the source filed them. The calls were made as follows: active = growth percent below 10; inactive = the rest.
Recorded growth by entry
assay_metric: growth

>>> result("CCCCn1c(=O)[nH]c2c(c1=O)C(c1ccc(Cl)cc1)c1c([nH]c(=O)n(CCCC)c1=O)N2")
"89.8% (inactive)"
>>> result("COc1ccc(-c2nnc(SCC(=O)c3ccccc3)o2)cc1")
"104% (inactive)"
>>> result("NC1CCC(Nc2nc(NCc3ccc(-c4ccccc4O)nc3)c3ncn(C4CCCC4)c3n2)CC1 (stereo unspecified)")
"-76.1% (active)"
>>> result("CCOc1ccc(-n2cc(-c3ccc(N(C)C)cc3)[n+]3c2CCCCC3)cc1")
"2.39% (active)"
>>> result("C[n+]1c(/C=C/c2c[nH]c3ccccc23)ccc2ccccc21")
"68.6% (inactive)"
>>> result("Cc1ccc2oc(=O)cc(/C(=C3/C=CC=N3)c3ccc[nH]3)c2c1")
"25.6% (inactive)"
>>> result("c1ccc(C2CCCCC2)c(OCCCCCN2CCNCC2)c1")
"43% (inactive)"
>>> result("CN(C)CCCN(Cc1ccccc1O)C(=S)Nc1ccc(Cl)cc1")
"101% (inactive)"
>>> result("COc1ccc(-c2nc(-c3nc4ccc(OC)cc4[nH]3)c3ccccn23)cc1")
"104% (inactive)"
>>> result("CCC(OC(=O)CC(C)C)c1ccccc1 (stereo unspecified)")
"110% (inactive)"
>>> result("COc1ccc(-c2cc(=O)n(-c3nc4ccccc4[nH]3)[nH]2)cc1OC")
"67.2% (inactive)"

====

System: A498 renal
assay_info: NCI-60 one-dose screen, 48 h (100 = growth as untreated, 0 = no growth, -100 = all killed)
condition_label: 10 µM
This is part of a sample that, as a whole, favours compounds with a hit. Of some 83,000 tested, about 20% had one in any assay.
assay_metric: growth (%)

>>> numeric_result("O=c1oc2c3ccc4cnccc4c3[nH]c2c2ccccc12")
55.5
>>> numeric_result("O=C(OCC1OC(n2cc(C(F)(F)F)c(=O)[nH]c2=O)CC1OC(=O)c1ccc([N+](=O)[O-])cc1)c1ccc([N+](=O)[O-])cc1 (configuration not stated)")
60.6
>>> numeric_result("FC(F)(F)c1ccc(-c2ncc(-c3ccc(C(F)(F)F)cc3)c(NCc3cc(C(F)(F)F)cc(C(F)(F)F)c3)n2)cc1")
54.1
>>> numeric_result("COc1ccc(-c2nc(-c3nc4ccc(C)cc4[nH]3)c3ccccn23)cc1")
19.6
>>> numeric_result("CN1/C(=C\\C(I)C(I)C2=[N+](C)c3ccccc3C2(C)C)C(C)(C)c2ccccc21 (configuration not stated)")
-2.55
>>> numeric_result("COCc1cc2c(cc1Br)OCO2")
91.2
>>> numeric_result("COc1cc(-c2c(C#N)c(N)n3c(nc4ccccc43)c2C#N)cc(Br)c1OC")
67.1
>>> numeric_result("COCCNCC(O)Cn1c2ccc(Cl)cc2c2cc(Cl)ccc21 (configuration not stated)")
62.6
>>> numeric_result("Nc1cc2c(cc1Cl)-c1ccc(Cl)cc1C2=O")
95.7
>>> numeric_result("CCC1(C)OC(=O)NC1=O (configuration not stated)")
125
>>> numeric_result("C[C@@H]1N=C(c2ccc(Br)cc2)Nc2nc3ccccn3c2C1=O")
69.9
>>> numeric_result("O=C(O)CNS(=O)(=O)c1ccc(OCCOc2ccc(S(=O)(=O)NCC(=O)O)cc2)cc1")
96.4
>>> numeric_result("CCCCCC(=O)N1c2ccccc2NC2=C(C(=O)CC(c3ccc(OC)c(OC)c3)C2)C1c1ccc(C(F)(F)F)cc1 (configuration not stated)")
57.2
>>> numeric_result("COc1cc2c3c(cccc3c1)C(=O)N(CCN1CCCC1)C2=O")
-22.1
>>> numeric_result("CCOC(=O)c1cc(-c2ccccc2)nc(N)n1")
86.5
>>> numeric_result("Cc1cc(Nc2cccc(F)c2)nc(NCc2ccccc2)n1")
24.4
>>> numeric_result("CNC(=O)c1cc(Oc2ccc(NC(=O)Nc3ccc(Cl)c(C(C)(C)C)c3)c(F)c2)ccn1")
53.4
>>> numeric_result("Cc1cc(OI)c(C(C)C)cc1-c1cc(C(C)C)c(OI)cc1C")
85.4
>>> numeric_result("CCOC(=O)c1cc2c(n1Cc1cc(OC)cc(OC)c1)-c1oncc1CC2")
24.9
>>> numeric_result("CCOC(=O)c1ccc(NC(=O)Nc2nncs2)cc1")
-13.3
>>> numeric_result("Nc1c(CNCc2nnn(Cc3ccccc3)c2N)nnn1Cc1ccccc1")
98.4
>>> numeric_result("CC(C)CCN(CCCNc1c2c(nc3cc(Cl)ccc13)CCCC2)CCC(C)C")
59
